The measurements presented in this section are drawn from paper PMC10397247.

Target: T1, 4H3628-bA
T1 chain: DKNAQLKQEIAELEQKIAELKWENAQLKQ
Test: two-hybrid library CCNG1;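 further: natural log of median RNA to DNA barcode read ratio; higher means stronger binding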
property: interaction score

These recorded examples may help you get a feel for the data.
>>> df
                                     binder  reported_measurement
0  DKNAQLKQEIAELEQKIAELKWENAQLKQ [4H3628-bA]                 0.549
1  DKNAQLEQENAELKQEIAELKWKIAQLEQ [4H3277-bA]                -0.955

A: DENQELEKKIEELKRKNWELEKEIQELER [4H1393-bH]
B: DENAQLKQKIAELKQKIAELKWENAQLEQ [4H1899-bA]
Prompt: Between the entries labeled A and B , whose measured interaction score is lower? Bench note: the answer is the label of the chosen record.
Response: A
